Please go through the items and note down their IC50.
experimental-target: A*2902 (Homo sapiens, UniProt P04439, A270S/D101N/D185E/E176V/E277Q/E87Q/F33T/G231S/H175R/I121M/I218V/I322F/K168Q/L300P/L318F/M331R/P208A/P217A/Q86L/T323A/T345S/V100A/V358M)
assay-text: biochemical
Type: binding
No end group written: not given here.
Provide the reading as a plain figure in µM.

### Prompt What value of IC50 has been recorded for this entry: GTSSLPTTMNY [Peptide 9012.0194]
### Response 0.26

### Prompt What value of IC50 has been recorded for this entry: ETVPISHLY [Peptide 9012.0132]
### Response 0.869

### Prompt What value of IC50 has been recorded for this entry: FTQENYLEY [Peptide 9012.0137]
### Response 0.023

### Prompt What value of IC50 has been recorded for this entry: GTDCTTIHYNY [Peptide 9012.0200]
### Response 0.959

### Prompt What value of IC50 has been recorded for this entry: YVMAGVGSPY [Peptide 9012.0152]
### Response 0.0034

### Prompt What value of IC50 has been recorded for this entry: ATSPAFDNLYY [Peptide 9012.0188]
### Response 0.0094
